The origin of these recorded values is ChEMBL document CHEMBL1201862.

System: A498
Test: NCI tumour cell line growth inhibition, 48 h
Calls of active or inactive are those of the source. Cut-off read from the data, not from the text of the source: active = GI50 up to about 1.1 µM and inactive = higher.
Possible outcomes: active, inactive

MOLECULE	CLASSIFICATION
NCCCCNCCCN1CC1	active
Nc1nc(SCc2ccc([N+](=O)[O-])cc2)nc2c1ncn2C1OC(CO)C(O)C1O (configuration not stated)	inactive
Cc1ccc(S(=O)(=O)NC(=O)NCC(=O)NCC(=O)O)cc1	inactive
CC1CC(C)CC(C)C(O)/C(C#N)=C/C=C/CC(C2CCCC2C(=O)O)OC(=O)CC(O)C(C)C1 (configuration not stated)	active
[O-][n+]1c2cccc(O)c2[n+]([O-])c2cccc(O)c21	inactive
Cc1[nH]c2ncn3ncnc3c2c1Cc1ccccc1	inactive
CC1CC=CC(O)C1 (configuration not stated)	inactive
COC(=O)CC(C(C(C)=O)C(=O)OCc1ccccc1)N1C(=O)OCC1c1ccccc1 (configuration not stated)	inactive
C/C(=N\NC(=O)c1ccccc1O)C1=CNc2ccccc2S1	inactive
C[n+]1c2ccccc2n2c3ccccc3c(NCc3ccco3)c(C#N)c21	inactive
Cc1[nH]n(-c2nc3c(c(=O)[nH]2)CCC3)c(=O)c1CCO	inactive
Cc1cc(N(CCC#N)CCC#N)ccc1C(/N=N/c1ccc(Cl)cc1)=N\NC(=O)c1cc(Cl)ccc1O	inactive
